Each recorded value in this set is attributed to the C3SDB collision cross section collection.

Details: [M+H-H2O]+; instrument: DT; single field, calibrated with Agilent tune mix (Agilent)
Consider the following compounds and their measured collision cross section (N2) readings.
Give a bare numeral; the unit Å² is implied.

The cases that follow already have their collision cross section (N2) on record.
# Record smiles, Reading unit, collision cross section (N2)
measured = [
    ("CC(C)=CCC[C@@H](C)[C@H]1CC[C@H]2[C@@H]3CC=C4C[C@@H](O)CC[C@]4(C)[C@H]3CC[C@]12C", "Å²", 199.4),
    ("CC(C)CCC[C@@H](C)[C@H]1CC[C@H]2C3=CC[C@H]4C[C@@H](O)CC[C@]4(C)[C@H]3CC[C@]12C", "Å²", 204.5),
    ("CC(C)(CO)[C@@H](O)C(=O)NCCC(=O)NCCS", "Å²", 164.6),
]

Enquiry: Quickly give me recorded collision cross section (N2) for O=C(O)C#Cc1ccccc1
Return: 121.2

Enquiry: Return the recorded collision cross section (N2) value; entry: O=C(O)Cc1cc(O)ccc1O
Return: 135.9

Enquiry: Quickly give me recorded collision cross section (N2) for CCCCCCCC/C=C\CCCCCCCCCCCCCC(=O)O
Return: 196.8

Enquiry: Hello, please tell me recorded collision cross section (N2) for this one: NCCc1c[nH]c2ccccc12
Return: 125.1

Enquiry: Fill in collision cross section (N2) for record O=CNc1ccccc1C(=O)O
Return: 125.7

Enquiry: // Input: COc1cc(/C=C/CO)ccc1O . Output its collision cross section (N2) only.
Return: 128.6

* * *

Details: [M-H]-; instrument: TW; calibrated with phosphatidylcholines (ESI+) and phosphatidylethanolamines (ESI-), doubly charged cardiolipins calibrated with poly-DL-…
Measurement kind: collision cross section (N2) (Å²)
All answers are understood in Å², so give the number only.

# Compound, collision cross section (N2) [Å²]
data = [
    ("CCCCCCCC/C=C\\CCCCCCCC(=O)OC(COC(=O)CCCCCCCCCCCCCCC)COP(=O)(O)O (configuration not stated) [PA(34:1)]", 255.63),
    ("CCCCC1CC1CCCCCCCC(=O)O[C@H](CO)COP(=O)([O-])OCC[NH3+] (some centres not stated) [LPE(0:0/15:1)]", 199.81),
    ("CCCCCCCCCCCCCCC(=O)OC[C@@H](O)COP(=O)([O-])OCC[NH3+] [LPE(15:0/0:0)]", 202.83),
    ("CCCCCCCCCCCCCCCC(=O)OC[C@@H](O)COP(=O)([O-])OCC[NH3+] [LPE(16:0/0:0)]", 206.89),
]

Enquiry: Dear colleague, please send me the reported collision cross section (N2) for CCCCCC/C=C\CCCCCCCC(=O)OCC(COP(=O)(O)O)OC(=O)CCCCCCCCCCCCCCC (configuration not stated) [PA(32:1)] when you can.
Return: 249.02

Enquiry: Query collision cross section (N2) for CCCCCC/C=C\CCCCCCCC(=O)OC[C@H](COP(=O)(O)OC[C@@H](O)COC(=O)CCCCCCCCCCCCCCC)OC(=O)CCCCCCC/C=C\CCCCCCCCCC [AcylPG(52:2)]
Return: 330.34

Enquiry: Determine from records and report collision cross section (N2) for CCCCCC/C=C\CCCCCCCC(=O)OCC(COP(=O)(O)OCCN)OC(=O)CCCCCCCC1CC1CCCCCCCC (configuration not stated) [PE(35:2)]
Return: 265.69

* * *

Details: [M+Na]+; instrument: DT; single field, calibrated with ESI Low Concentration Tuning Mix (Agilent)
Measurement kind: collision cross section (N2) (Å²)
Please reply with the bare figure in Å² and do not write the unit itself.

# Compound, collision cross section (N2), Å²
data = [
    ("NCCC(=O)N[C@@H](Cc1cnc[nH]1)C(=O)O", 154.7),
    ("CC(=O)N[C@@H](CO)C(=O)O", 133.4),
    ("Nc1nc(=O)c2ncn([C@@H]3O[C@H](COP(=O)(O)O)[C@@H](O)[C@H]3O)c2[nH]1 [GUANOSINE MONOPHOSPHATE]", 174.3),
    ("Nc1ccn(C2O[C@H](CO)[C@H]3OP(=O)(O)O[C@@H]23)c(=O)n1 (some centres undefined) [CYTIDINE 2',3'-CYCLIC PHOSPHATE]", 167.4),
    ("OC[C@H]1OC(O)[C@H](O)[C@@H](O)[C@H]1O (some centres undefined)", 141.9),
    ("CC(=O)N[C@@H](C)C(=O)O", 134.7),
]

Enquiry: Read the entry Nc1ncnc2c1ncn2[C@@H]1O[C@H](COP(=O)(O)O)[C@@H](OP(=O)(O)O)[C@H]1O [ADENOSINE 3',5'-DIPHOSPHATE] and write its reported collision cross section (N2).
Return: 188

Enquiry: Return the recorded collision cross section (N2) value; entry: Cc1ncc(C[n+]2csc(CCOP(=O)(O)O)c2C)c(N)n1 [THIAMINE MONOPHOSPHATE]
Return: 176.9

Enquiry: Annotate the compound CC[C@H](NC(=O)CC[C@H]([NH3+])C(=O)[O-])C(=O)NCC(=O)[O-] [OPHTHALMATE] with its measured collision cross section (N2).
Return: 163.4

* * *

Details: [M+Na]+; instrument: DT; stepped-field
Here the recorded collision cross section (N2) is given for each entry.
Express your answer as a number followed by its unit.

# Molecule, collision cross section (N2)
measured = [
    ("CC/C=C\\C/C=C\\C/C=C\\C/C=C\\C/C=C\\CCCC(=O)OC[C@H](COP(=O)(O)OCCN)OC(=O)CCCCC/C=C\\C/C=C\\C/C=C\\C/C=C\\CCCCC [PE(42:9)]", "295.6 Å²"),
]

Enquiry: Report measured collision cross section (N2); entry is CC/C=C\C/C=C\C/C=C\C/C=C\C/C=C\C/C=C\CCC(=O)OC[C@H](COP(=O)(O)OCCN)OC(=O)CC/C=C\C/C=C\C/C=C\C/C=C\C/C=C\C/C=C\CC [PE(44:12)]
Return: 299.7 Å²

Enquiry: // Input: CCCCC/C=C\C/C=C\C/C=C\C/C=C\CCCC(=O)O[C@H](COC(=O)CCCCCCCCCCCCCCCC)COP(=O)(O)OC[C@H](N)C(=O)O [PS(37:4)] . Output its collision cross section (N2) only.
Return: 295 Å²

Enquiry: Kindly indicate its recorded collision cross section (N2). Item: CC/C=C\C/C=C\C/C=C\C/C=C\C/C=C\C/C=C\CCC(=O)O[C@H](COC(=O)CCCCCCCCCCCCCCCCCC)COP(=O)(O)OC[C@H](N)C(=O)O [PS(41:6)]
Return: 303.3 Å²

* * *

Here the recorded collision cross section (N2) is given for each entry.
Details: [M-H]-; instrument: DT; single field, calibrated with ESI Low Concentration Tuning Mix (Agilent)
Kindly provide the numeric value in Å² only, without the unit symbol.

// below: answered compounds
# Compound, collision cross section (N2) (Å²)
data = [
    ("O=C(O)CCCCCCCCCO [10-HYDROXYDECANOATE]", 144.3),
    ("Cc1cc2nc3[nH]c(=O)[nH]c(=O)c3nc2cc1C [LUMICHROME]", 155.1),
    ("CC(C)=CCC/C(C)=C/COP(=O)(O)OP(=O)(O)O [GERANYL-PP]", 167.2),
]

Enquiry: Specify measured collision cross section (N2) for N[C@@H]1[C@@H](O)[C@H](O)[C@@H](COP(=O)(O)O)O[C@@H]1O [GLUCOSAMINE 6-PHOSPHATE] .
Return: 148.1

Enquiry: Please give measured collision cross section (N2) of the following entry: OCCc1c[nH]c2ccccc12 [INDOLE-3-ETHANOL]
Return: 132.6

Enquiry: Give reported collision cross section (N2) value for CC[C@H](C)[C@H](N)C(=O)O [ISOLEUCINE]
Return: 129.3

* * *

Catalogue of collision cross section (N2) values
Details: [M+Na]+; instrument: DT; single field, calibrated with ESI Low Concentration Tuning Mix (Agilent)
The figure you give is taken to be in Å²; do not add the unit.

Consider the worked cases shown below.
# Compound, Data value
rows = [
    ("CC1=C(/C=C/C(C)=C/C=C/C(C)=C/C(=O)O)C(C)(C)CCC1 [RETINOATE]", 181.9),
    ("Cc1ncc(CO)c(CN)c1O", 144.1),
    ("O=P(O)(O)OC[C@H]1OC(O)[C@H](O)[C@@H]1O (stereo partly drawn) [D-RIBOSE 5-PHOSPHATE]", 150.5),
]

Enquiry: Give the reported value of collision cross section (N2) for this record: NC(=O)CCCCC1CCSS1 (configuration not stated) [LIPOAMIDE]
Return: 150.4

Enquiry: Report collision cross section (N2), nothing else, for this compound: C[Se]CCC(N)C(=O)O (configuration not stated)
Return: 138.1

Enquiry: Look up and state reported collision cross section (N2) for O=C1O[C@H]([C@@H](O)CO)[C@H](O)[C@@H]1O
Return: 140.8

Enquiry: Determine its reported collision cross section (N2): O=C(O)[C@H]1O[C@H](O)[C@H](O)[C@@H](O)[C@H]1O [GALACTURONATE]
Return: 145.3

Enquiry: Specify collision cross section (N2) for Cc1cc2nc3[nH]c(=O)[nH]c(=O)c3nc2cc1C and stop.
Return: 167.7

Enquiry: Name the recorded collision cross section (N2) of the item NC(N)=NCCC[C@H](N)C(=O)O in your answer.
Return: 148.6

Enquiry: Look up and state reported collision cross section (N2) for C[C@H]1O[C@@H](n2cnc3c(N)ncnc32)[C@H](O)[C@@H]1O
Return: 167.2

Enquiry: Fill in reported collision cross section (N2) for this entry: CN(C)C(N)=NCCC[C@H](N)C(=O)O
Return: 157.2

Enquiry: Provide measured collision cross section (N2) value, entry: CCC[C@H](N)C(=O)O
Return: 133.1
